Measured Metric: melting point

[
  {
    "Compound": "CC(=O)NC[C@H]1CN(c2ccc(N3CCN(C(=O)CCCc4ccc(NC(=O)CN)cc4)CC3)c(F)c2)C(=O)O1 [Example 60]",
    "Measurement": "199 to 200 °C (dec.)"
  },
  {
    "Compound": "CC(=O)NC[C@H]1CN(c2ccc(N3CCN(C(=O)CCCc4ccc(O)cc4)CC3)c(F)c2)C(=O)O1 [Example 42]",
    "Measurement": "119 to 120 °C (dec.)"
  },
  {
    "Compound": "CC(=O)NC[C@H]1CN(c2ccc(N3CCN(C(=O)CCC(=O)c4ccc(Br)cc4)CC3)c(F)c2)C(=O)O1 [Example 44]",
    "Measurement": "197 to 198 °C"
  }
]

Item CC(=S)NC[C@H]1CN(c2ccc(N3CCN(C(=O)CCC(=O)c4ccc(Cl)cc4)CC3)c(F)c2)C(=O)O1 [Example 50] : provide melting point
215 to 216 °C (dec.)

Item CC(=O)NC[C@H]1CN(c2ccc(N3CCN(C(=O)CCC(=O)c4ccc(Cl)cc4)CC3)c(F)c2)C(=O)O1 [Example 49] : provide melting point
208 to 209 °C

Item CCC(=S)NC[C@H]1CN(c2ccc(N3CCN(C(=O)COc4ccc(CN5CCOCC5)cc4)CC3)c(F)c2)C(=O)O1 [Example 7] : provide melting point
159 to 160 °C

----------
Recorded melting point for the following compounds

Item CCC(=S)NC[C@H]1CN(c2ccc(N3CCN(C(=O)COc4ccc(CN(CC)CC)cc4)CC3)c(F)c2)C(=O)O1 : provide melting point
98 °C

Item CC(=O)NC[C@H]1CN(c2ccc(N3CCN(C(=O)CN4C(=O)c5ccc(N)cc5C4=O)CC3)c(F)c2)C(=O)O1 : provide melting point
241 to 243 °C (dec.)

Item CC(=O)NC[C@H]1CN(c2ccc(N3CCN(C(=O)CCC(=O)c4ccc(CN(C)C)cc4)CC3)c(F)c2)C(=O)O1 : provide melting point
190 to 192 °C

----------
Test system: S. aureus (SAUR 31583)
Measured Metric: MIC

[
  {
    "Cpd Smiles": "CC(=O)NC[C@H]1CN(c2ccc(N3CCN(C(=O)COc4ccc(CN(C)C)cc4)CC3)c(F)c2)C(=O)O1",
    "MIC": "> 64 µg/mL"
  },
  {
    "Cpd Smiles": "CC(=O)NC[C@H]1CN(c2ccc(N3CCN(C(=O)COc4ccc(CN5CCOCC5)cc4)CC3)c(F)c2)C(=O)O1",
    "MIC": "> 64 µg/mL"
  }
]

Here's the next entry for you.
Item CCN(CC)Cc1ccc(OCC(=O)N2CCN(c3ccc(N4C[C@H](CNC(C)=O)OC4=O)cc3F)CC2)cc1 : provide MIC
> 64 µg/mL

----------
Measured Metric: melting point

[
  {
    "Cpd Smiles": "CCC(=S)NC[C@H]1CN(c2ccc(N3CCN(C(=O)CCC(=O)c4ccc(CN5CCOCC5)cc4)CC3)c(F)c2)C(=O)O1",
    "melting point": "160 °C"
  }
]

Item CC(=O)NC[C@H]1CN(c2ccc(N3CCN(C(=O)CCC(=O)c4ccc(CNC(=O)CN(C)C)cc4)CC3)c(F)c2)C(=O)O1 : provide melting point
160 to 160.5 °C

Item CN(C)Cc1ccc(C(=O)CCC(=O)N2CCN(c3ccc(N4C[C@H](CNC(=S)C5CC5)OC4=O)cc3F)CC2)cc1 : provide melting point
174 to 175 °C

Item COc1ccc(CCCC(=O)N2CCN(c3ccc(N4C[C@H](CNC(C)=O)OC4=O)cc3F)CC2)cc1 : provide melting point
164 to 165 °C

Item CCC(=S)NC[C@H]1CN(c2ccc(N3CCN(C(=O)COc4ccc(CN(C)C)cc4)CC3)c(F)c2)C(=O)O1 : provide melting point
163 to 164 °C
